IC50 values, listed per item
biological target: NAMPT (Homo sapiens, UniProt P43490); construct: His tag; host or cells: E. coli; assay: Biochemical inhibition assay: NAMPT enzymatic reaction, NMN quantified by mass spectrometry; conditions: NAMPT enzymatic reaction; read-out: Biochem IC50
Sequence (P43490 whole entry): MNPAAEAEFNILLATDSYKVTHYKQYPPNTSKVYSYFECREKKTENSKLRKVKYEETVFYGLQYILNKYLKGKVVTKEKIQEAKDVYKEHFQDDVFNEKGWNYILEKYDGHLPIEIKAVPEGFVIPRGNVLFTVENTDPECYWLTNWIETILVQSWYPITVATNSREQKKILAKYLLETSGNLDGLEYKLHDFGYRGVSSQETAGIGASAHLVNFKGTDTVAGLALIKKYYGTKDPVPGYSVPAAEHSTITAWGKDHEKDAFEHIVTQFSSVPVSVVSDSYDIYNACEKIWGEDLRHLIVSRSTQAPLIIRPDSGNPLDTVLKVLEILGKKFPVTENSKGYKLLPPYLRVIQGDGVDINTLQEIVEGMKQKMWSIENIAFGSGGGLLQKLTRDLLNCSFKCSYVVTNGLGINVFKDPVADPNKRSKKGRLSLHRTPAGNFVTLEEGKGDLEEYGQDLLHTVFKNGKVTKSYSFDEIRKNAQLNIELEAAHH

smilesString	IC50 (nM)
COc1cc(S(=O)(=O)c2ccc(CNC(=O)c3cc4ccncc4s3)cc2)ccc1C	2.7
O=C(NCc1ccc(S(=O)(=O)c2cc(F)cc(Cl)c2)cc1)c1cnc2nccn2c1	2.4
Cc1cccc(S(=O)(=O)c2ccc(CNC(=O)c3cnc4[nH]ncc4c3)cc2)c1F	19.7
O=C(NCc1ccc(S(=O)(=O)c2cc(F)cc(Cl)c2)cc1)c1cc2ccncc2o1	17.8
COc1ccc(S(=O)(=O)c2ccc(CNC(=O)c3cc4ccncc4s3)cc2)cc1Cl	5
CCc1ccccc1S(=O)(=O)c1ccc(CNC(=O)c2cc3cnccc3[nH]2)cc1	5
Cc1c(Cl)cccc1S(=O)(=O)c1ccc(CNC(=O)c2cnc3nccn3c2)cc1	4.3
O=C(NCc1ccc(S(=O)(=O)c2cc(F)cc(F)c2)cc1)c1cnc2nccn2c1	2
O=C(NCc1ccc(S(=O)(=O)c2cccc(N3CCCC3)c2)cc1)c1cc2cc(O)ccc2[nH]1	144

---

target: NAMPT (Homo sapiens); construct: His tag; host or cells: E. coli; assay: Biochemical inhibition assay: NAMPT enzymatic reaction, NMN quantified by mass spectrometry; details: NAMPT enzymatic reaction; read-out: Biochem IC50
pIC50: −log10 of the molar value.
Criterion: pIC50 meeting or surpassing 8. Met: label 1. Not met: label 0.

smilesString	class
COc1ccc(Cl)c(S(=O)(=O)c2ccc(CNC(=O)c3cc4ccncc4o3)cc2)c1	label 1
COc1c(C)cc(S(=O)(=O)c2ccc(CNC(=O)c3cnc4nccn4c3)cc2)cc1C	label 1
COc1cccc(OC(C)C)c1S(=O)(=O)c1ccc(CNC(=O)c2cc3cnccc3[nH]2)cc1	label 0
COc1ccc(C(C)=O)cc1S(=O)(=O)c1ccc(CNC(=O)c2cnc3nccn3c2)cc1	label 0
COc1ccc(F)c(S(=O)(=O)c2ccc(CNC(=O)c3ccc4nccn4c3)cc2)c1	label 1
O=C(NCc1ccc(S(=O)(=O)c2cccc(F)c2)cc1)c1ccc2nccn2c1	label 0
COc1cc(S(=O)(=O)c2ccc(CNC(=O)c3cnc4nccn4c3)cc2)ccc1F	label 1
CC(=O)c1cccc(S(=O)(=O)c2ccc(CNC(=O)c3cc4ccncc4o3)cc2)c1	label 0

---

molecular target: NAMPT (Homo sapiens); construct: His tag; host or cells: E. coli; test: Biochemical inhibition assay: NAMPT enzymatic reaction, NMN quantified by mass spectrometry; conditions: NAMPT enzymatic assay; read-out: Biochem IC50
Labelling: IC50 reported below 6 nM becomes Fulfilled; at or above becomes Not fulfilled.

smilesString	class
COc1cc(C(F)(F)F)ccc1S(=O)(=O)c1ccc(CNC(=O)c2cc3ccncc3s2)cc1	Not fulfilled
Cn1cc2ccc(S(=O)(=O)c3ccc(CNC(=O)c4cc5ccncc5o4)cc3)cc2n1	Fulfilled
O=C(NCc1ccc(S(=O)(=O)c2csc(-c3cccc(F)c3)n2)cc1)c1cnc2nccn2c1	Fulfilled
COc1ccc(C(C)C)cc1S(=O)(=O)c1ccc(CNC(=O)c2cc3ccncc3o2)cc1	Not fulfilled

---

Target: NAMPT (Homo sapiens, UniProt P43490)
Construct: His tag; host or cells: E. coli
Experiment: Biochemical inhibition assay: NAMPT enzymatic reaction, NMN quantified by mass spectrometry
Settings: NAMPT enzymatic assay; read-out: Biochem IC50
Text: Biochemical Inhibition Assay NAMPT Protein Purification Recombinant His-tagged NAMPT was produced in E. coli cells, purified over a Ni column, and further purified over a size-exclusion column by XTAL Biostructures. The NAMPT Enzymatic Reaction […] A mass spectrometry-based assay was used to measure the NAMPT reaction product (NMN) and the internal control (L-Cystathionine). NMN and L-Cystathionine were detected using the services of Biocius Lifesciences with the RapidFire system. […]
pIC50: −log10 of the molar value.
pIC50 values, listed per item

smilesString	pIC50
Cc1ncccc1S(=O)(=O)c1ccc(CNC(=O)c2cnc3[nH]ncc3c2)cc1	6.98
Cn1ncc2cc(S(=O)(=O)c3ccc(CNC(=O)c4cc5cnccc5[nH]4)cc3)ccc21	8.24
O=C(NCc1ccc(S(=O)(=O)c2cccc(Oc3ccc(F)cc3)c2)cc1)c1cc2ccncc2s1	8.59
CC(C)Oc1ccc(Cl)cc1S(=O)(=O)c1ccc(CNC(=O)c2cc3ccncc3o2)cc1	8.04
CCOCc1ccc(S(=O)(=O)c2ccc(CNC(=O)c3cc4ccncc4o3)cc2)cc1	8.31
O=C(NCc1ccc(S(=O)(=O)c2cccc(-c3ccc(F)c(F)c3)n2)cc1)c1ccc2nccn2c1	8.37
O=C(NCc1ccc(S(=O)(=O)c2cccc(C(F)(F)F)c2Cl)cc1)c1cc2ccncc2o1	7.74
COc1ccc(S(=O)(=O)c2ccc(CNC(=O)c3cc4ccncc4o3)cc2)nc1	8.10
Cn1cc2ccc(S(=O)(=O)c3ccc(CNC(=O)c4ccc5nccn5c4)cc3)cc2n1	8.72
CN1CCN(c2ccc(S(=O)(=O)c3ccc(CNC(=O)c4cc5cnccc5[nH]4)cc3)cc2)CC1	8.52
COc1ccc2cc(S(=O)(=O)c3ccc(CNC(=O)c4cc5ccncc5o4)cc3)ccc2c1	8.52
COc1ccc(S(=O)(=O)c2ccc(CNC(=O)c3ccc4nccn4c3)cc2)c(OC)n1	7.36
O=C(NCc1ccc(S(=O)(=O)c2ccc(C(F)(F)F)cc2)cc1)c1cc2ccncc2o1	8.06
N#CC1(c2ccc(S(=O)(=O)c3ccc(CNC(=O)c4cc5cnccc5[nH]4)cc3)cc2)CCCC1	7.22
O=C(NCc1ccc(S(=O)(=O)c2cc(Cl)ccc2OCC(F)F)cc1)c1cc2cnccc2[nH]1	8.30
CCOc1ccc(-c2ccc(S(=O)(=O)c3ccc(CNC(=O)c4cc5cnccc5[nH]4)cc3)cc2)cc1	8.05
O=C(NCc1ccc(S(=O)(=O)c2cccc(N3CCOCC3)c2)cc1)c1ccc2ncsc2c1	7.40
O=C(NCc1ccc(S(=O)(=O)c2ccc3c(c2)OCCO3)cc1)c1cc2ccncc2o1	8.26
CN(C)CCc1cccc(S(=O)(=O)c2ccc(CNC(=O)c3cc4ccncc4s3)cc2)c1	8.60

---

target: NAMPT (Homo sapiens); construct: His tag; host or cells: E. coli; assay: Biochemical inhibition assay: NAMPT enzymatic reaction, NMN quantified by mass spectrometry; details: NAMPT enzymatic assay; read-out: Biochem IC50

smilesString	IC50
Cc1ncccc1S(=O)(=O)c1ccc(CNC(=O)c2cc3cnccc3[nH]2)cc1	180 nM
O=C(NCc1ccc(S(=O)(=O)c2cnn(-c3ccc(F)cc3)c2)cc1)c1cc2ccncc2s1	4.5 nM
O=C(NCc1ccc(S(=O)(=O)c2cccc(N3CCCC3)c2)cc1)c1cc2ccncc2o1	8.2 nM
O=C(NCc1ccc(S(=O)(=O)c2cccc3c2OCO3)cc1)c1cnc2nccn2c1	2.9 nM
O=C(NCc1ccc(S(=O)(=O)c2cccnc2C(F)(F)F)cc1)c1cc2ccncc2o1	30.4 nM

---

target: NAMPT (Homo sapiens, UniProt P43490); construct: His tag; host or cells: E. coli; experiment: Biochemical inhibition assay: NAMPT enzymatic reaction, NMN quantified by mass spectrometry; details: NAMPT enzymatic reaction; read-out: Biochem IC50
log10(IC50) values, listed per item
endpoint: log10(IC50) (log10 of the value in nM)

smilesString	endpoint	measValue
Cc1cc(S(=O)(=O)c2ccc(CNC(=O)c3cc4ccncc4o3)cc2)ccc1F	log10(IC50)	1.12
N#Cc1ccc(S(=O)(=O)c2ccc(CNC(=O)c3ccc4nccn4c3)cc2)cc1	log10(IC50)	1.20
CCCCOc1ccc(S(=O)(=O)c2ccc(CNC(=O)c3cnc4[nH]ncc4c3)cc2)cc1Cl	log10(IC50)	0.65
COc1cc(C)c(S(=O)(=O)c2ccc(CNC(=O)c3cnc4[nH]ncc4c3)cc2)cc1C	log10(IC50)	1.57
CCCOc1ccc(S(=O)(=O)c2ccc(CNC(=O)c3cc4cnccc4[nH]3)cc2)cc1Cl	log10(IC50)	1.87
O=C(NCc1ccc(S(=O)(=O)c2cc(F)ccc2Cl)cc1)c1ccc2nccn2c1	log10(IC50)	1.32
CCOc1cc(S(=O)(=O)c2ccc(CNC(=O)c3cc4ccncc4s3)cc2)ccc1F	log10(IC50)	0.52
CCCOc1ccc(S(=O)(=O)c2ccc(CNC(=O)c3cnc4[nH]ncc4c3)cc2)cc1Cl	log10(IC50)	0.90

---

biological target: NAMPT (Homo sapiens); construct: His tag; host or cells: E. coli; assay: Biochemical inhibition assay: NAMPT enzymatic reaction, NMN quantified by mass spectrometry; details: NAMPT enzymatic reaction; read-out: Biochem IC50
pIC50: −log10 of the molar value.
pIC50 values, listed per item

smilesString	pIC50
COc1cc(OC)cc(S(=O)(=O)c2ccc(CNC(=O)c3cnc4[nH]ncc4c3)cc2)c1	8.59
O=C(NCc1ccc(S(=O)(=O)c2cccc(-c3ccccc3)c2)cc1)c1cc2ccncc2s1	8.35
COc1cc(C)c(S(=O)(=O)c2ccc(CNC(=O)c3cc4ccncc4o3)cc2)cc1C	7.91
COc1cccc(S(=O)(=O)c2ccc(CNC(=O)c3ccc4nccn4c3)cc2)c1	8.30
COc1ccc(S(=O)(=O)c2ccc(CNC(=O)c3cc4cnccc4[nH]3)cc2)cc1OC	7.85
COc1ccc(Cl)cc1S(=O)(=O)c1ccc(CNC(=O)c2cnc3nccn3c2)cc1	8.26
CCCOc1cccc(F)c1S(=O)(=O)c1ccc(CNC(=O)c2cc3ccncc3s2)cc1	7.94
CCCCc1ccc(S(=O)(=O)c2ccc(CNC(=O)c3cnc4[nH]ncc4c3)cc2)cc1	7.15
CCOc1ccccc1S(=O)(=O)c1ccc(CNC(=O)c2cnc3[nH]ncc3c2)cc1	7.31
Cc1cccc(S(=O)(=O)c2ccc(CNC(=O)c3cc4cnccc4[nH]3)cc2)c1F	7.12
O=C(NCc1ccc(S(=O)(=O)c2cccc(Cl)c2F)cc1)c1cnc2nccn2c1	8.62
O=C(NCc1ccc(S(=O)(=O)c2cccc3c2Oc2ccccc2S3)cc1)c1cc2cnccc2[nH]1	8.30
O=C(NCc1ccc(S(=O)(=O)c2cccc(F)c2)cc1)c1cc2ccncc2s1	8.52
CCCOc1ccc(S(=O)(=O)c2ccc(CNC(=O)c3cc4cnccc4[nH]3)cc2)cc1	8.28
COc1ccc(C)cc1S(=O)(=O)c1ccc(CNC(=O)c2cnc3[nH]ncc3c2)cc1	7.25
O=C(NCc1ccc(S(=O)(=O)c2ccccc2Oc2ccccc2)cc1)c1cc2ccncc2o1	7.69
CCOc1ccc(S(=O)(=O)c2ccc(CNC(=O)c3ccc4nccn4c3)cc2)c(C)c1	8.18
CCCCOc1cccc(S(=O)(=O)c2ccc(CNC(=O)c3cc4ccncc4s3)cc2)c1	8.48
COc1cc(F)cc(S(=O)(=O)c2ccc(CNC(=O)c3cnc4[nH]ncc4c3)cc2)c1	8.36
NS(=O)(=O)c1cccc(S(=O)(=O)c2ccc(CNC(=O)c3cnc4[nH]ncc4c3)cc2)c1	7.52
Cn1cc(S(=O)(=O)c2ccc(CNC(=O)c3cc4cnccc4[nH]3)cc2)cn1	7.32
Cc1cccc(S(=O)(=O)c2ccc(CNC(=O)c3cc4ccncc4o3)cc2)c1F	8.20
O=C(NCc1ccc(S(=O)(=O)c2ccccc2OC(F)(F)F)cc1)c1ccc2nccn2c1	8.10
CCCCOc1cccc(S(=O)(=O)c2ccc(CNC(=O)c3cnc4[nH]ncc4c3)cc2)c1	7.42
Nc1ccc(C(=O)NCc2ccc(S(=O)(=O)c3cc(F)cc(F)c3)cc2)cn1	7.85
COc1ccc(S(=O)(=O)c2ccc(CNC(=O)c3cnc4nccn4c3)cc2)c(C)c1	8.62
COc1c(C)cc(S(=O)(=O)c2ccc(CNC(=O)c3cc4cnccc4[nH]3)cc2)cc1C	7.29
COc1cc(OC)cc(S(=O)(=O)c2ccc(CNC(=O)c3cc4ccncc4s3)cc2)c1	8.89
Cc1ccccc1S(=O)(=O)c1ccc(CNC(=O)c2cc3ccncc3s2)cc1	8.00
CCCCOc1ccc(Cl)cc1S(=O)(=O)c1ccc(CNC(=O)c2cc3cnccc3[nH]2)cc1	7.81
COc1ccc(Cl)c(S(=O)(=O)c2ccc(CNC(=O)c3ccc4nccn4c3)cc2)c1	8.25
COc1ccc(C(C)=O)cc1S(=O)(=O)c1ccc(CNC(=O)c2ccc3nccn3c2)cc1	7.42
CS(=O)(=O)c1ccc(S(=O)(=O)c2ccc(CNC(=O)c3cc4cnccc4[nH]3)cc2)cc1	7.62
Cc1cccc(S(=O)(=O)c2ccc(CNC(=O)c3ccc4nccn4c3)cc2)c1F	8.12
Cc1cc(Cl)cc(S(=O)(=O)c2ccc(CNC(=O)c3cc4ccncc4s3)cc2)c1	8.35
CCCCc1ccc(S(=O)(=O)c2ccc(CNC(=O)c3cc4ccncc4s3)cc2)cc1	8.54
COc1cccc(Cl)c1S(=O)(=O)c1ccc(CNC(=O)c2cc3cnccc3[nH]2)cc1	7.89
CCCOc1ccc(S(=O)(=O)c2ccc(CNC(=O)c3cnc4nccn4c3)cc2)cc1F	8.57
